targetOfAssay: T1, BMPRII receptor-Fc fusion (UniProt Q13873 27-151, limits assumed)
T1 construct: BMP receptor-Fc fusion, detected with anti-human IgG-HRP
T1 sequence (looked up): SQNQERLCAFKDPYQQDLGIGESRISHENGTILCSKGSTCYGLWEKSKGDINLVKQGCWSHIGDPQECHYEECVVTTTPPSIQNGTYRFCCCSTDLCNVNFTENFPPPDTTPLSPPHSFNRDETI
measurementDescription: ELISA-like, fixed volume of conditioned media, receptor-Fc
Give BMPRII binding relative to wild type for every item shown.

| binder | BMPRII binding relative to wild type |
| --- | --- |
| BMP-7 variant S77P (ligand) STGGKQRSQNRSKTPKNQEALRMASVAENSSSDQRQACKKHELYVSFRDLGWQDWIIAPEGYAAYYCEGECAFPLNPYMNATNHAIVQTLVHFINPETVPKPCCAPTQLNAISVLYFDDSSNVILKKYRNMVVRACGCH | 0.85 relative to wt = 1.0 |
| BMP-7 variant R134P (ligand) STGGKQRSQNRSKTPKNQEALRMASVAENSSSDQRQACKKHELYVSFRDLGWQDWIIAPEGYAAYYCEGECAFPLNSYMNATNHAIVQTLVHFINPETVPKPCCAPTQLNAISVLYFDDSSNVILKKYRNMVVPACGCH | 0.5 relative to wt = 1.0 |
| BMP-7 variant R134S (ligand) STGGKQRSQNRSKTPKNQEALRMASVAENSSSDQRQACKKHELYVSFRDLGWQDWIIAPEGYAAYYCEGECAFPLNSYMNATNHAIVQTLVHFINPETVPKPCCAPTQLNAISVLYFDDSSNVILKKYRNMVVSACGCH | 1.07 relative to wt = 1.0 |
| BMP-7 variant S77T (ligand) STGGKQRSQNRSKTPKNQEALRMASVAENSSSDQRQACKKHELYVSFRDLGWQDWIIAPEGYAAYYCEGECAFPLNTYMNATNHAIVQTLVHFINPETVPKPCCAPTQLNAISVLYFDDSSNVILKKYRNMVVRACGCH | 0.93 relative to wt = 1.0 |

Fill in BMPRII binding relative to wild type for each of the 3 binders listed.
1. BMP-7 variant K39D (ligand) STGGKQRSQNRSKTPKNQEALRMASVAENSSSDQRQACDKHELYVSFRDLGWQDWIIAPEGYAAYYCEGECAFPLNSYMNATNHAIVQTLVHFINPETVPKPCCAPTQLNAISVLYFDDSSNVILKKYRNMVVRACGCH
2. BMP-7 variant K126G (ligand) STGGKQRSQNRSKTPKNQEALRMASVAENSSSDQRQACKKHELYVSFRDLGWQDWIIAPEGYAAYYCEGECAFPLNSYMNATNHAIVQTLVHFINPETVPKPCCAPTQLNAISVLYFDDSSNVILGKYRNMVVRACGCH
3. BMP-7 variant K39T (ligand) STGGKQRSQNRSKTPKNQEALRMASVAENSSSDQRQACTKHELYVSFRDLGWQDWIIAPEGYAAYYCEGECAFPLNSYMNATNHAIVQTLVHFINPETVPKPCCAPTQLNAISVLYFDDSSNVILKKYRNMVVRACGCH

Ans.
1. 0.72 relative to wt = 1.0
2. 0.12 relative to wt = 1.0
3. 0.75 relative to wt = 1.0

Where these numbers come from: patent US20060058231A1
